// reported ELISA signal relative to background for each item listed
target-desc: T1, FX activation peptide 12-mer LLDFNQTQPERG (human)
T1 peptide: LLDFNQTQPERG-biotin
test-summary: peptide ELISA
Ends that are not written are not given here.
Give only the figure.

The examples below pair each entry with its known result.
Nb 701B09 (VHH, monovalent Nanobody; also called Nb 701609; not shown: C-terminal FLAG3 and HIS6 tag) VHH: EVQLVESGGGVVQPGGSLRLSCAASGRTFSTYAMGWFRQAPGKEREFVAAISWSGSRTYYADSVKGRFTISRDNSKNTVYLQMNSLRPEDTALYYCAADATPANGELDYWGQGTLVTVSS :: 1.09
Nb 730C03 (VHH, monovalent Nanobody; also called Nb 730003; not shown: C-terminal FLAG3 and HIS6 tag) VHH: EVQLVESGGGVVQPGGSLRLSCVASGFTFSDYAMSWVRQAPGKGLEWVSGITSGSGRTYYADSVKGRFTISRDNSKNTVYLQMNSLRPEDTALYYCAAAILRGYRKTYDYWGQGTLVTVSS :: 1.1
Nb 729A04 (VHH, monovalent Nanobody; not shown: C-terminal FLAG3 and HIS6 tag) VHH: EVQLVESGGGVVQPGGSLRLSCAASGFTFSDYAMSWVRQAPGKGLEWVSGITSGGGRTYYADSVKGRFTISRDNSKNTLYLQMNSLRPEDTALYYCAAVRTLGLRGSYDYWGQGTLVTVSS :: 1.1

Record Nb 701D07 (VHH, monovalent Nanobody; not shown: C-terminal FLAG3 and HIS6 tag) VHH: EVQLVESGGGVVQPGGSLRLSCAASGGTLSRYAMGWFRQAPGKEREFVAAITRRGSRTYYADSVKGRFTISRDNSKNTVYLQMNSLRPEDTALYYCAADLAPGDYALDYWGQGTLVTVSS . Reported ELISA signal relative to background: 0.8
